system: Human enteroendocrine cell-line (NCI-H716); experiment: Measurement of Glucagon Like Peptide-1 (GLP-1) secretion; format: cell-based; conditions: NCI-H716 cells, one hour, with respect to vehicle control
recorded_metric: Fold increase in GLP Release (fold)

test_smiles=CN(C(=O)c1c(-c2ccc(O)cc2)nc2ncccn12)c1ccc(Cl)cc1 units_symbol=fold number=1.69
test_smiles=CN(C(=O)c1c(-c2ccc(F)cc2)nc2ncccn12)c1ccc(F)cc1 units_symbol=fold number=2.13
test_smiles=CN(C(=O)c1c(-c2cccc(C(F)(F)F)c2)nc2ncccn12)c1ccc(F)cc1 units_symbol=fold number=1.83
test_smiles=CN(C(=O)c1c(-c2ccc(F)cc2)nc2ncccn12)c1ccc(Cl)cc1 units_symbol=fold number=3.72
test_smiles=CN(C(=O)c1c(-c2ccc3c(c2)OCO3)nc2ncccn12)c1ccc(F)cc1 units_symbol=fold number=2.03
test_smiles=CN(C(=O)c1c(Oc2ccc(F)cc2)nc2ncccn12)c1ccc(Cl)cc1 units_symbol=fold number=1.74

###

target: human TGR5 (Homo sapiens); construct: host or cells: CHO cells (ATCC); assay: cAMP Responsive Element (CRE)-Reporter Assay; format: cell-based; conditions: luciferase activity relative to vehicle control, five hours, CHO cells transfected with human TGR5 and CRE-luciferase
Sequence (Q8TDU6 whole entry): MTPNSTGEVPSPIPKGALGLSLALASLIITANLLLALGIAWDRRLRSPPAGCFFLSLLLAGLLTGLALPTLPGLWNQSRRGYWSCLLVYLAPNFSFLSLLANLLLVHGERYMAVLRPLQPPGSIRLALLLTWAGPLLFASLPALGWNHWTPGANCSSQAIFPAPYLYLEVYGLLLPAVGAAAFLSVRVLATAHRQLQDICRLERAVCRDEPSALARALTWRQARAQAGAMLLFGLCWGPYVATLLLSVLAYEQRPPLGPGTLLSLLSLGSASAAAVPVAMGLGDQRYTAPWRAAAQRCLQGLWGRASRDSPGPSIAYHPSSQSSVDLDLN
Here the recorded fold induction at 10 µM is given for each entry.
recorded_metric: fold induction at 10 µM

compound="CN(C(=O)c1c(-c2cccc(C#N)c2)nc2ncccn12)c1ccc(Cl)cc1 [Compound no. 36]" result="2 to 3"
compound="CN(C(=O)c1c(-c2ccc3c(c2)OCO3)nc2ncccn12)c1ccc(Cl)cc1 [compound 29]" result="3 to 4"
compound="CN(C(=O)c1c(-c2ccccn2)nc2ncccn12)c1ccc2c(c1)CCC2 [compound 17]" result="2 to 3"
compound="CN(C(=O)c1c(-c2ccccc2)nc2ncccn12)c1cccc(Cl)c1 [Compound no. 2]" result="3 to 4"
compound="CN(C(=O)c1c(-c2ccc3c(c2)OCO3)nc2ncccn12)c1ccc(F)cc1 [Compound no. 28]" result="2 to 3"
compound="CN(C(=O)c1c(-c2ccc(F)cc2)nc2ncccn12)c1ccc(F)cc1F [compound 40]" result="2 to 3"
compound="COc1ccc(-c2nc3ncccn3c2C(=O)N(C)c2ccc(F)cc2)cc1F [compound 41]" result="2 to 3"
compound="CN(C(=O)c1c(-c2ccc(Cl)cc2)nc2ncccn12)c1ccc2c(c1)CCC2 [Compound no. 4]" result="3 to 4"
compound="CN(C(=O)c1c(Oc2ccc(F)cc2)nc2ncccn12)c1ccc(F)cc1F [Compound no. 46]" result="2 to 3"
compound="CN(C(=O)c1c(-c2ccc(O)c(O)c2)nc2ncccn12)c1ccc2c(c1)CCC2 [compound 15]" result="2 to 3"
compound="CN(C(=O)c1c(-c2ccccc2)nc2ncc(-c3ccccc3)cn12)c1ccc(Cl)cc1 [compound 12]" result="2 to 3"
compound="CN(C(=O)c1c(Oc2ccc(F)cc2)nc2ncccn12)c1ccc(Cl)cc1 [Compound no. 50]" result="> 4"
compound="CN(C(=O)c1c(-c2ccc(O)c(F)c2)nc2ncccn12)c1ccc(F)cc1 [compound 42]" result="2 to 3"
